The measured values listed here are drawn from patent US20240301061A1.

Target: T1, human claudin 6 (CLDN6) (human, UniProt P56747 1-220)
T1 construct: also called human CLDN6; hCLDN6
T1 sequence: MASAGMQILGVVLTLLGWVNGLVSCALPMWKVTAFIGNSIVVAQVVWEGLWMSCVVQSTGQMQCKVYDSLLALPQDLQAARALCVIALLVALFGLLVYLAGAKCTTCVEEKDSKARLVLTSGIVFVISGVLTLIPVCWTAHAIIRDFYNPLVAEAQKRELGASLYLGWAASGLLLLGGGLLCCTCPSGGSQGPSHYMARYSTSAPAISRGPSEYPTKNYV
Assay: flow cytometry, HEK293T-hCLDN6 cells; ratio to chBG87P
Property: FACS Emax ratio to BG87P

>>> val("BG87P-34 (antibody, V domains shown, Final lead anti-CLDN6 clone (IGHV3-23 / IGKV1-39 framework); also called BG87-34) VH: EVQLQESGGGLVQPGGSLRLSCAASGYSFSDYHINWVRQAPGKGLEWVGYIYPGSGHTKYNEKFKGRFTISRDTSSNTAYLQMNSLRAEDTAVYYCARSGIYHYVSSYYFDHWGQGTLVTVSS VL: DIQMTQSPSSLSASVGDRVTITCKASQDAGSAVAWYQQKPGKAPKLLIYWASTRHTGVPSRFSGSGSGTDFTLTISSLQPEDFATYYCQQYSSYTFGGGTKLEIK")
1.03
>>> val("BG87P-21 (antibody, V domains shown, 2nd round humanized variant) VH: QVQLVQSGAEVKKPGASVKVSCKASGYSFTDYHINWVRQAPGQRLEWMGWIYPGSGYTKYNEKFKGRVTITRDTSASTAYMELSSLRSEDTAVYYCARSGIYHYVSSYYFDHWGKGTTVTVSS VL: DIQMTQSPSTLSASVGDRVTITCKASQDVGTAVAWYQQKPGKAPKLLIYWASTRHTGVPSRFSGSGSGTEFTLTISSLQPDDFATYYCQQYSSYTFGGGTKVEIK")
0.66
>>> val("BG87P-32 (antibody, V domains shown, Solubility engineering variant of BG87P-21) VH: QVQLQQSGAETKKPGASVKVSCKASGYSFTDYHINWVRQASGQRLEWMGYIYPGSGHTKKNEKFKGRVTITRDTSASTAYMELSSLRSEDTAVYYCARSGIYHYVSSYYFDHWGKGTTVTVSS VL: DIQMTQSPSTLSASVGDRVTITCKASQDAGSAVAWYQQKPGKAPKLLIYWASTRHTGVPSRFSGSGSGTEFTLTISSLQPDDFATYYCQQYSSYTFGGGTKVEIK")
0.63
>>> val("BG87P-33 (antibody, V domains shown, Framework-swapped variant; also called BG87-33) VH: EVQLQESGGGLVQPGGSLRLSCAASGYSFTDYHINWVRQAPGKGLEWVSYIYPGSGHTKYNEKFKGRFTISRDTSKNTAYLQMNSLRAEDTAVYYCARSGIYHYVSSYYFDHWGQGTLVTVSS VL: DIQMTQSPSTLSASVGDRVTITCKASQDAGSAVAWYQQKPGKAPKLLIYWASTRHTGVPSRFSGSGSGTEFTLTISSLQPDDFATYYCQQYSSYTFGGGTKVEIK")
0.91
